- Test system: NCI-H596
- measurement_description: relative viability (nuclei count vs DMSO), 5 days (fraction); higher = more cells survive
- condition: first compound 1.265 µM
Exercise: for every item that follows, state its recorded relative viability.
Numbers only.

Use the examples below as a reference point.
IN: Tell me reported relative viability for Clc1ccc(Nc2nnc(Cc3ccncc3)c3ccccc23)cc1 [Vatalanib] + Nc1nc2[nH]cc(CCc3ccc(C(=O)N[C@@H](CCC(=O)O)C(=O)O)cc3)c2c(=O)[nH]1 [Pemetrexed] (partner 0.2 µM) , tested with NCI-H596.
OUT: 0.514

IN: Tell me reported relative viability for COc1cc(N2CCC(C(N)=O)CC2)ccc1Nc1nc(N)c(Cl)c(Nc2ccccc2S(=O)(=O)C(C)C)n1 [HG-5-88-01] + NC(=O)Nc1cc(-c2cccc(F)c2)sc1C(=O)N[C@H]1CCCNC1 [AZD7762] (partner 0.2 µM) , tested with NCI-H596.
OUT: 1.06

IN: Tell me reported relative viability for Clc1ccc(Nc2nnc(Cc3ccncc3)c3ccccc23)cc1 [Vatalanib] + Cc1nc(NC(=O)N2CCC[C@H]2C(N)=O)sc1-c1ccnc(C(C)(C)C(F)(F)F)c1 [Alpelisib] (partner 2 µM) , tested with NCI-H596.
OUT: 0.53

***
IN: Tell me reported relative viability for COc1cc(N2CCC(C(N)=O)CC2)ccc1Nc1nc(N)c(Cl)c(Nc2ccccc2S(=O)(=O)C(C)C)n1 [HG-5-88-01] + CS(=O)(=O)N1CCN(Cc2cc3nc(-c4cccc5[nH]ncc45)nc(N4CCOCC4)c3s2)CC1 [Pictilisib] (partner 1 µM) , tested with NCI-H596.
OUT: 0.414
